# Target system: Transcriptional activator protein LasR (Pseudomonas aeruginosa (strain ATCC 15692 / PAO1 / 1C / PRS 101 / LMG12228), UniProt P25084)
# Sequence (P25084 whole entry, the tested form may be a part): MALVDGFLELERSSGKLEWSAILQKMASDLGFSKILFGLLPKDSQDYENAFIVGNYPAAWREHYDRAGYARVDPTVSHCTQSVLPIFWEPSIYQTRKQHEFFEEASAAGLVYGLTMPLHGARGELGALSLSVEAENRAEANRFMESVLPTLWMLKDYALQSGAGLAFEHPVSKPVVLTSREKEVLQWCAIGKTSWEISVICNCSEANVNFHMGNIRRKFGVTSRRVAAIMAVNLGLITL
# Protocol notes: Antagonist activity at LasR in Pseudomonas aeruginosa reporter strain
Recorded metric: IC50 (µM)
Kindly answer with a numeric value in µM, unit omitted.

Solved entries:
O=C(CCSc1ccc(Cl)cc1)N[C@H]1CCOC1=O = 5.2
CCCCc1cn(CC(=O)N[C@H]2CCOC2=O)nn1 = 3.27
O=C(N[C@H]1CCOC1=O)c1ccc(-n2cc(CSc3ccccc3)nn2)cc1 = 2.64

Annotate the compound Nc1cccc(-n2cc(CCC(=O)N[C@H]3CCOC3=O)nn2)c1 with its measured IC50.
4.03

====

# Protocol notes: Antagonist activity at Pseudomonas aeruginosa His6/Sumo-tagged PqsR by beta-galactosidase reporter gene assay
Recorded metric: IC50
Reply with a number, then the unit it belongs to.

Recall and state the measured IC50 for CC(C)(C)c1ccc(C(=O)NO)cc1 .
23.6 µM

====

# Target system: Transcriptional activator protein LasR (Pseudomonas aeruginosa (strain ATCC 15692 / PAO1 / 1C / PRS 101 / LMG12228), UniProt P25084)
# Protocol notes: Antagonist activity at LasR in Pseudomonas aeruginosa PAO1 harboring GFP-fused quorum sensing lasB measured every 15 mins for 14 hrs by GFP reporter gene assay
Recorded metric: pIC50
pIC50 is defined as minus the log10 of a concentration measured in mol/L.

Determine its reported pIC50: Nc1nc2nn[nH]c2c(=O)[nH]1 [8-AZAGUANINE]
6.19

====

# Target system: 2-heptyl-4(1H)-quinolone synthase PqsD (Pseudomonas aeruginosa)
# Protocol notes: Antagonist activity at Pseudomonas aeruginosa PqsD
Recorded metric: pIC50
Keep in mind that pIC50 stands for -log10 of concentration in molar terms.

Please report the measured pIC50 for O=C(Nc1ccccc1C(=O)O)c1ccc(-c2ccccc2)c(Oc2ccccc2)c1
4.46

Determine its reported pIC50: CCN(CC)S(=O)(=O)c1cc(C(=O)Nc2ccccc2C(=O)O)ccc1Br
4.19

====

# Protocol notes: Antagonist activity at Escherichia coli DH5alpha PqsR by beta-galactosidase reporter gene assay
Recorded metric: IC50 (nM)
Give the number; nM is assumed, so skip it.

CCCCCCCc1cc(=O)c2cc(C(F)(F)F)ccc2[nH]1 = 54

Attention now turns to another entry.
// fetch IC50 given entry CCCCCCCc1cc(=O)c2cc([N+](=O)[O-])ccc2[nH]1
51

====

# Target system: 2-heptyl-4(1H)-quinolone synthase PqsD (Pseudomonas aeruginosa, UniProt A0A0C7ACN7)
# Sequence (A0A0C7ACN7 whole entry): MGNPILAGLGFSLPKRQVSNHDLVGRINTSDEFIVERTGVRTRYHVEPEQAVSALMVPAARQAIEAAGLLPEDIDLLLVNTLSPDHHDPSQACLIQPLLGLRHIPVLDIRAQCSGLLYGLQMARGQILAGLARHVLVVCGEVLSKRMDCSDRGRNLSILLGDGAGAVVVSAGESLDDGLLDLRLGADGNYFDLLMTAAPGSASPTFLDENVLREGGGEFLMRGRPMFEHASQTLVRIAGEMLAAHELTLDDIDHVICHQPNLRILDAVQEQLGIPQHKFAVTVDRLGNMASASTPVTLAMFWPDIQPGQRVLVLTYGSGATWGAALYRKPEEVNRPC
# Protocol notes: Inhibition of Pseudomonas aeruginosa PqsD
Catalogue of compounds with associated pIC50
pIC50 is defined as minus the log10 of a concentration measured in mol/L.

CS(=O)(=O)c1ncc(-n2cnnn2)cn1 = 4.68

Could you now look at the following compound, please?
Return reported pIC50. Input compound: CCCCCCS(=O)(=O)c1ncc(-n2ccnn2)cn1
5.77
